We begin with a simple list: items and their reported activity at 100 µM.
target: Zeta (DGK zeta) (Homo sapiens, UniProt Q13574); test: DGK isoform % Activity screen; type: biochemical
Sequence (Q13574 whole entry, canonical isoform): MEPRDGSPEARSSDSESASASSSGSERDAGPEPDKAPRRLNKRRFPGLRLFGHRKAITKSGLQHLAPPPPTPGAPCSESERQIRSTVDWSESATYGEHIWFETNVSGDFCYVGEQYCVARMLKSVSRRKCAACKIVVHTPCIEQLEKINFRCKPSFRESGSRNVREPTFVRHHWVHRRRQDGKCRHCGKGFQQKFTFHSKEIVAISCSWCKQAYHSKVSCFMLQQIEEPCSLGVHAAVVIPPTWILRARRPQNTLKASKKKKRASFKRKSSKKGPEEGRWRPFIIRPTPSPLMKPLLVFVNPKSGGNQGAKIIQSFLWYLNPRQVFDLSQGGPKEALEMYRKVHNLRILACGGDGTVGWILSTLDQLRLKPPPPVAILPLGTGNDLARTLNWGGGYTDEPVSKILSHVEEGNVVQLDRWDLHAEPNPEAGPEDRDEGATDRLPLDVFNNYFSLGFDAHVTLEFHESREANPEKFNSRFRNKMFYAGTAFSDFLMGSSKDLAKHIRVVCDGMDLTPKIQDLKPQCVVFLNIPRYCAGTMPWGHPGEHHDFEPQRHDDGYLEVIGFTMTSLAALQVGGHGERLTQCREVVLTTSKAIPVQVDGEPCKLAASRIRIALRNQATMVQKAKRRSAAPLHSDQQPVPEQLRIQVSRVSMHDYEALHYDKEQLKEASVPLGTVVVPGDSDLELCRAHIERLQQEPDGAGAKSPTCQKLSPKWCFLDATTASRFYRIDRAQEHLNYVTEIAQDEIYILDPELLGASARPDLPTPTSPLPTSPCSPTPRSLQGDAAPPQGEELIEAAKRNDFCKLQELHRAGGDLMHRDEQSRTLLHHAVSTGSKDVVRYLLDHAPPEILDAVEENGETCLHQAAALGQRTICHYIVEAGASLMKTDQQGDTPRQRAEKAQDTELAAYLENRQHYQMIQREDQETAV
Write down the value, and be sure its unit follows.

See these solved cases before continuing.
> print(dat)
                                   compound  measvalue
1  Fc1ccc(C(=C2CCN(Cc3ccc4ccccc4n3)CC2)c2ccc(F)cc2)cc1       169%
2  CN(C)CCOc1ccc(/C(=C(/CCCl)c2ccccc2)c2ccccc2)cc1        86%
3  CC(=O)N1CCN(C(c2ccc(F)cc2)c2ccc(F)cc2)CC1        98%
4        Fc1ccc(C(=C2CCNCC2)c2ccc(F)cc2)cc1        80%
5  CS(=O)(=O)N1CCN(C(c2ccc(F)cc2)c2ccc(F)cc2)CC1       108%
6  OC(c1ccc(C(F)(F)F)cc1)(c1ccc(C(F)(F)F)cc1)C1CCNCC1        94%

Please give measured activity at 100 µM of the following entry: `Clc1ccc(C(=C2CCNCC2)c2ccc(Cl)cc2)cc1` 85%

Annotate the molecule `Fc1ccc(C(c2ccc(F)cc2)N2CCN(C3CCNCC3)CC2)cc1` with its measured activity at 100 µM. 72%

Tell me activity at 100 µM reported for `Cc1nc2sccn2c(=O)c1CCN1CCC(=C(c2ccc(F)cc2)c2ccc(F)cc2)CC1` 86%
